- test.system: TLR10 (Homo sapiens)
- Sequence (Q9BXR5 20-576): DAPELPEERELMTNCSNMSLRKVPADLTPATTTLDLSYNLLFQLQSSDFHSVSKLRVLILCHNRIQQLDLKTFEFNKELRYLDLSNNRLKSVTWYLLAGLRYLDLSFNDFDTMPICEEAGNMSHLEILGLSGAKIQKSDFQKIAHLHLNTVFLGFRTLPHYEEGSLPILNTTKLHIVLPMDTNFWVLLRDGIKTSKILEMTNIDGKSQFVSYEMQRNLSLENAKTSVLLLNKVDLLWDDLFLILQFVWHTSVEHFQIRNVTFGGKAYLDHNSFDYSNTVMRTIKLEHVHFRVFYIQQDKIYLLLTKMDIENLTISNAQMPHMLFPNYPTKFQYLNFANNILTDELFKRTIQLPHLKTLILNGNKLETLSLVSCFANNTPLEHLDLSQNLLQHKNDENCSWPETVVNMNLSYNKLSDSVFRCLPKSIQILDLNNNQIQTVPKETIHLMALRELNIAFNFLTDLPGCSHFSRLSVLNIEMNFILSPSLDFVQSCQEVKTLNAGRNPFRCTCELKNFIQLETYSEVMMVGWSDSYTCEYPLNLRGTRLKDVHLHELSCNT
- assay.procedure: mRNA display affinity selection against TLR10, NGS abundance
- Type: binding
- Set-up: Chimera protein (extracellular domain, amino acid 20-576;); Fc (chimera); purchased R&D system #6619-TR-050
- condition.parameters: TLR10 selection pulldown (-); Top100 selection hits, NGS
Binary call on Library fraction: fulfilled from 0.001 upward, not fulfilled beneath that.

Observe how each entry below is paired with its result.
{"sequence.record": "VGQVLVKSS", "label.value": "not fulfilled"}
{"sequence.record": "TNPYGGNVGW", "label.value": "fulfilled"}
{"sequence.record": "CVFFPHLNKIAL", "label.value": "fulfilled"}
{"sequence.record": "TILFSLQNVRAF", "label.value": "fulfilled"}
{"sequence.record": "SQFNHAMGWYVN", "label.value": "fulfilled"}

q: Does `GTGLNRYGGINY` have a reported Library fraction of at least 0.001?
a: fulfilled

q: Entry `ANYHGNVPWSC` please
a: not fulfilled

q: Entry `IGRLYIKSS` please
a: fulfilled

q: Entry `AVEFSNAVVM` please
a: not fulfilled

q: Entry `GVGNRYGGHAGT` please
a: not fulfilled

###

- test.system: TLR10 (Homo sapiens, UniProt Q9BXR5)
- Sequence (Q9BXR5 20-576): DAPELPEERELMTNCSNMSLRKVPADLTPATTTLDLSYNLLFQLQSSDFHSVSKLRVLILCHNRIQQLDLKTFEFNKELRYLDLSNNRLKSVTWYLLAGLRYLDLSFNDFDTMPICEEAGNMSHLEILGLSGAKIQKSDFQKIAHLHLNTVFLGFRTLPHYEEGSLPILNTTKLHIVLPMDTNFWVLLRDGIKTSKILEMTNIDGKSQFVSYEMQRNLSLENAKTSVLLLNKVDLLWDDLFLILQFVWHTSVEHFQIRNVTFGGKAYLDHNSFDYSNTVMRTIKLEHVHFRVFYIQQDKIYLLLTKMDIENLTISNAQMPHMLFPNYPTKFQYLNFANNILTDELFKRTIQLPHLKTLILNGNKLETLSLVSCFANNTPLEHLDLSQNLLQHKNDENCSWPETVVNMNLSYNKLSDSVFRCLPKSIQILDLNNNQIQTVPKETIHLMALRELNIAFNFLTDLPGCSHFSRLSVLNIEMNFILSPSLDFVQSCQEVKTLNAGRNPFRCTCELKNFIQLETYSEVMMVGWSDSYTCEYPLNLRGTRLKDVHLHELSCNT
- assay.procedure: mRNA display affinity selection against TLR10, NGS abundance
- Assay type: binding
- Parameters: Chimera protein (extracellular domain, amino acid 20-576;); Fc (chimera); purchased R&D system #6619-TR-050
- condition.parameters: TLR10 selection pulldown (+); Top100 selection hits, NGS
Kindly note that classification relies on Raw reads with these boundaries: LOW = under 30, MEDIUM = from 30 up to 100, HIGH = 100 and over

Observe how each entry below is paired with its result.
{"sequence.record": "GDLRGNVCMWL", "label.value": "LOW"}
{"sequence.record": "IGSVFIKSS", "label.value": "HIGH"}
{"sequence.record": "TIYFKLQKAVAL", "label.value": "MEDIUM"}
{"sequence.record": "SMEFVKIPLVIH", "label.value": "MEDIUM"}
{"sequence.record": "AIRFSNVLAL", "label.value": "LOW"}
{"sequence.record": "SVPFPLQRKLVF", "label.value": "HIGH"}
{"sequence.record": "TIKFPRLQMLAI", "label.value": "MEDIUM"}
{"sequence.record": "SFMFFSQRKLAF", "label.value": "MEDIUM"}

q: Just checking, what class would you give `SIQFKVLQKLAF` here?
a: LOW

q: Entry `SKQVYHKQTIVG` please
a: MEDIUM

q: Entry `MIRMDRLRVL` please
a: LOW
